Attribution: patent US10294202B2

# Tested on: velvetleaf
# assay text: Test A pre-/postemergence herbicide test
# Format: in vivo, Abutilon theophrasti
# test parameters: Preemergence, 125 g ai/ha; visual rating on 0 to 100 scale (0 no effect, 100 complete control)
A collection of compounds and their measured Velvetleaf plant response rating
// no unit, no text: just the number

O=C1NCC(c2ccc3c(c2)OC(F)(F)O3)C1C(=O)Nc1ccccc1C(F)(F)F (racemic)
0
O=C1NCC(c2ccccc2Cl)C1C(=O)Nc1ccccc1F (racemic)
0
O=C1NCC(c2ccc(F)c(F)c2)C1C(=O)Nc1cccc(C(F)(F)F)c1 (racemic)
0
O=C1NCC(c2cc(F)c(F)c(F)c2)C1C(=O)Nc1cccc([N+](=O)[O-])c1 (centres unmarked)
0
COc1cccc(C2CNC(=O)C2C(=O)Nc2ccccc2F)c1 (racemic)
0
O=C1NCC(c2ccc(Cl)cc2Cl)C1C(=O)Nc1ccccc1F (racemic)
0

Return reported Velvetleaf plant response rating. Input compound: O=C1NCC(c2ccc(Cl)c(F)c2)C1C(=O)Nc1cccc(F)c1F (centres unmarked) 0

Return reported Velvetleaf plant response rating. Input compound: O=C1NCC(c2ccc3c(c2)OC(F)(F)O3)C1C(=O)Nc1ccccc1F (centres unmarked) 0

* * *

# Test system: barnyardgrass
# assay text: Test A pre-/postemergence herbicide test
# Type: in vivo, Echinochloa crus-galli
# test parameters: Postemergence, 125 g ai/ha; visual rating on 0 to 100 scale (0 no effect, 100 complete control), approx. 10 days
Please note: criterion met applies when Plant response rating, Barnyardgrass is 40 or greater, and criterion not met applies otherwise.

O=C1NCC(c2ccc(OC(F)F)cc2)C1C(=O)Nc1cccc(F)c1F (racemic) [Compound 350]
criterion met
O=C1NCC(c2ccc(Br)c(Br)c2)C1C(=O)Nc1ccc(F)c(F)c1F (stereo not drawn) [Compound 342]
criterion not met
CCN1CC(c2ccc(C(F)(F)F)cc2)C(C(=O)Nc2cccc(F)c2F)C1=O (stereo not drawn) [Compound 336]
criterion not met

Could you tell me if the measured Plant response rating, Barnyardgrass of O=C1NCC(c2ccc(Cl)s2)C1C(=O)Nc1ccccc1F (stereo not drawn) [Compound 292] reaches 40 or more? criterion met

Could you tell me if the measured Plant response rating, Barnyardgrass of CSc1cccc(C2CNC(=O)C2C(=O)Nc2ccccc2F)c1 (stereo not drawn) [Compound 287] reaches 40 or more? criterion met

Could you tell me if the measured Plant response rating, Barnyardgrass of O=C1NCC(c2ccc(Br)c(Br)c2)C1C(=O)Nc1ccc(F)cc1F (stereo not drawn) [Compound 340] reaches 40 or more? criterion not met

Could you tell me if the measured Plant response rating, Barnyardgrass of O=C1NCC(c2ccc(Cl)o2)C1C(=O)Nc1ccccc1F (stereo not drawn) [Compound 284] reaches 40 or more? criterion not met

Could you tell me if the measured Plant response rating, Barnyardgrass of O=C1NCC(c2cccc(C(F)(F)F)c2)C1C(=O)Nc1cc(F)ccc1F (stereo not drawn) [Compound 314] reaches 40 or more? criterion not met

* * *

# Test system: foxtail, giant
# assay text: Test C pre-/postemergence herbicide test
# Type: in vivo, Setaria faberii
# test parameters: Preemergence, 125 g ai/ha; scale 0 to 100 (0 no effect, 100 complete control)
A collection of compounds and their measured Plant response rating, Foxtail, Giant
// no unit, no text: just the number

Example compounds with recorded Plant response rating, Foxtail, Giant:
O=C1NCC(c2cccc(OC(F)(F)F)c2)C1C(=O)Nc1ccccc1F (centres unmarked) [Compound 69]
85
O=C1NC[C@H](c2cccc(C(F)(F)F)c2)[C@H]1C(=O)Nc1ccccc1F [Compound 204]
95
O=C1NCC(c2cc(F)c(F)c(F)c2)C1C(=O)Nc1cccc(F)c1F (centres unmarked) [Compound 48]
95
O=C1NCC(c2ccc(F)c(Cl)c2)C1C(=O)Nc1ccccc1F (centres unmarked) [Compound 60]
90
O=C1NCC(c2ccc(F)c(F)c2)C1C(=O)Nc1cccc(F)c1F (racemic) [Compound 101]
98

Return reported Plant response rating, Foxtail, Giant. Input compound: Cc1ccccc1NC(=O)C1C(=O)NCC1c1cccc(C(F)(F)F)c1 (racemic) [Compound 109] 98

Return reported Plant response rating, Foxtail, Giant. Input compound: CN1CC(c2cccc(C(F)(F)F)c2)C(C(=O)Nc2cccc(F)c2F)C1=O (centres unmarked) [Compound 305] 95

Return reported Plant response rating, Foxtail, Giant. Input compound: O=C1NC[C@H](c2cccc(C(F)(F)F)c2)[C@H]1C(=O)Nc1cccc(F)c1F [Compound 206] 95
